Every entry's value here was drawn from patent US20130273029A1.

- target system: Human HER3, endogenous, on human cancer cell lines (SK-Br-3, MCF7, BT-474) (human, UniProt P21860 20-1342)
- Sequence (P21860 20-1342): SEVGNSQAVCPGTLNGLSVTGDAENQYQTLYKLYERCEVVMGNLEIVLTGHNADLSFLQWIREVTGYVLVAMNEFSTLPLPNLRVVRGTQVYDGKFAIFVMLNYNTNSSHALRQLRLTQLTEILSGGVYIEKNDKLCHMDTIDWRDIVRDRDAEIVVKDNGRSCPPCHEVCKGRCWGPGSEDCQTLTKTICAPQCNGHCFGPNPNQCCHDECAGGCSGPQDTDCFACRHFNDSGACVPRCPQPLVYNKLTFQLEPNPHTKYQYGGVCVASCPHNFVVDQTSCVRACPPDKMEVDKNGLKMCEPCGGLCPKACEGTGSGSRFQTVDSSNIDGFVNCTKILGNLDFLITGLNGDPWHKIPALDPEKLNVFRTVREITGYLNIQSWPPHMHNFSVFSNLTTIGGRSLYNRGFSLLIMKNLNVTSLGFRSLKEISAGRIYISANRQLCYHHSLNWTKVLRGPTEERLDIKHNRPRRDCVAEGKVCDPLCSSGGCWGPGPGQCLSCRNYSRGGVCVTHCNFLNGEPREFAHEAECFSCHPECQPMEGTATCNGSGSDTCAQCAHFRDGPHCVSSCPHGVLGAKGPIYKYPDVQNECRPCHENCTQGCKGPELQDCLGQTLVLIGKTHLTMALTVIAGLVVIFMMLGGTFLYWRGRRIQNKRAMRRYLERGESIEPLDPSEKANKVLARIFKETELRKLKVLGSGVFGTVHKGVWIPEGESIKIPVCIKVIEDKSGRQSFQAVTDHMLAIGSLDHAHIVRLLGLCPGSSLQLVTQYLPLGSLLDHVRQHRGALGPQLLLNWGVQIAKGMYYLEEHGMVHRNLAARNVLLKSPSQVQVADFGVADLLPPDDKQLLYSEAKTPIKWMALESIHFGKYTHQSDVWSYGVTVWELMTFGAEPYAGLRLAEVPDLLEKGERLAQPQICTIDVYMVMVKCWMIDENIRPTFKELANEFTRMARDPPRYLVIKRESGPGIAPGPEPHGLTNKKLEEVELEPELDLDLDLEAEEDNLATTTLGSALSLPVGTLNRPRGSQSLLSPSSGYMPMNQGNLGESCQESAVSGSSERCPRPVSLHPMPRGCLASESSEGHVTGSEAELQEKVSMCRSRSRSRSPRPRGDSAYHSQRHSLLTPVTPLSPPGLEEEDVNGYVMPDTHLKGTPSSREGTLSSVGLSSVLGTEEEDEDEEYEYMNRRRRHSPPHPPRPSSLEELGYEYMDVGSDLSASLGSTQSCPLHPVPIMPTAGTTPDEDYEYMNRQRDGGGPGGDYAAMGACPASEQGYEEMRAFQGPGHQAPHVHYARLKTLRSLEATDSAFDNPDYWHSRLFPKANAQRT
- assay notes: cell-based or functional assay
// values below are reported BT-474 pAkt (S473) % inhibition
Don't forget the unit after the value.

Solved entries (count: 2):
# binder, BT-474 pAkt (S473) % inhibition
rows = [
    ("MOR13762 (antibody, human IgG1, kappa, V domains shown, tested as IgG) VH: QVQLVQSGAEVKKPGESLKISCKGSGYSFTNTWVAWVRQMPGKGLEWMGIIYPGQSDTIYSPSFQGQVTISADKSISTAYLQWSSLKASDTAMYYCARVHIIQPPSAWSYNAMDVWGQGTLVTVSS VL: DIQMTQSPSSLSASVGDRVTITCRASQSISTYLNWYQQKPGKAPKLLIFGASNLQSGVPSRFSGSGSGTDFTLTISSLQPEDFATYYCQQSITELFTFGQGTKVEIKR", "86%"),
    ("MOR13754 (antibody, human IgG1, kappa, V domains shown, tested as IgG) VH: QVQLVQSGAEVKKPGESLKISCKGSGYSFTSYWVAWVRQMPGKGLEWMGIIYPGGSDTIYSPSFQGQVTISADKSISTAYLQWSSLKASDTAMYYCARVHIIQPPSAWSYNAMDVWGQGTLVTVSS VL: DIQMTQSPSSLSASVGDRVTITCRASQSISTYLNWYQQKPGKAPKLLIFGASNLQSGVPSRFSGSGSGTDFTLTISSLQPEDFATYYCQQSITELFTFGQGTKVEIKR", "64%"),
]

With those in mind, consider the next binder.
Input: Recorded BT-474 pAkt (S473) % inhibition for MOR13763 (antibody, human IgG1, kappa, V domains shown, tested as IgG) VH: QVQLVQSGAEVKKPGESLKISCKGSGYSFTSYWVAWVRQMPGKGLEWMGIIYPGQSDTIYSPSFQGQVTISADKSISTAYLQWSSLKASDTAMYYCARVHIIQPPSAWSYNAMDVWGQGTLVTVSS VL: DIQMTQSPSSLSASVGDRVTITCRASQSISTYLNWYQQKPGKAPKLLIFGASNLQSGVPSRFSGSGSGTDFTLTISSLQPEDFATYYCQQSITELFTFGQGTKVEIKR , please?
Output: 76%
